Origin of values: paper PMC3813431

Tested on: RyR1
procedure text: Mammalian RyR1 [3H]ryanodine binding
Parameters: species or system rabbit
condition summary: relative potency factor, EC2X relative to PCB 95; from literature EC2X values
Known Mammal RPF of a selection of molecules
Please give the numeric answer without any surrounding text.

1) Clc1cc(Cl)c(-c2cc(Cl)c(Cl)cc2Cl)cc1Cl [PCB 153] :: 0.18
2) Clc1ccc(Cl)c(-c2cc(Cl)c(Cl)cc2Cl)c1 [PCB 101] :: 0.26

Now examine the next entry.
Identify the measured Mammal RPF of Clc1cc(Cl)c(-c2c(Cl)ccc(Cl)c2Cl)cc1Cl [PCB 149] for RyR1.
0.67

----------
Test system: RyR1
procedure text: Mammalian RyR1 [3H]ryanodine binding
Parameters: species or system rabbit
condition summary: relative potency factor, EC2X relative to PCB 95; from literature EC2X values
Known Mammal RPF of a selection of compounds
Please give the numeric answer without any surrounding text.

1) Clc1ccc(-c2cc(Cl)c(Cl)cc2Cl)c(Cl)c1 :: 0.08
2) Clc1ccc(Cl)c(-c2c(Cl)ccc(Cl)c2Cl)c1Cl :: 0.96
3) Clc1ccc(Cl)c(-c2cc(Cl)ccc2Cl)c1 :: 0.45

Could you share which Mammal RPF value was measured for Clc1ccc(-c2cc(Cl)c(Cl)c(Cl)c2Cl)c(Cl)c1Cl ?
0.30

----------
measured target: ryanodine receptor, isoform 1 (RyR1) (Oncorhynchus mykiss, UniProt A0A8C7UX14)
Sequence (A0A8C7UX14 1-5031): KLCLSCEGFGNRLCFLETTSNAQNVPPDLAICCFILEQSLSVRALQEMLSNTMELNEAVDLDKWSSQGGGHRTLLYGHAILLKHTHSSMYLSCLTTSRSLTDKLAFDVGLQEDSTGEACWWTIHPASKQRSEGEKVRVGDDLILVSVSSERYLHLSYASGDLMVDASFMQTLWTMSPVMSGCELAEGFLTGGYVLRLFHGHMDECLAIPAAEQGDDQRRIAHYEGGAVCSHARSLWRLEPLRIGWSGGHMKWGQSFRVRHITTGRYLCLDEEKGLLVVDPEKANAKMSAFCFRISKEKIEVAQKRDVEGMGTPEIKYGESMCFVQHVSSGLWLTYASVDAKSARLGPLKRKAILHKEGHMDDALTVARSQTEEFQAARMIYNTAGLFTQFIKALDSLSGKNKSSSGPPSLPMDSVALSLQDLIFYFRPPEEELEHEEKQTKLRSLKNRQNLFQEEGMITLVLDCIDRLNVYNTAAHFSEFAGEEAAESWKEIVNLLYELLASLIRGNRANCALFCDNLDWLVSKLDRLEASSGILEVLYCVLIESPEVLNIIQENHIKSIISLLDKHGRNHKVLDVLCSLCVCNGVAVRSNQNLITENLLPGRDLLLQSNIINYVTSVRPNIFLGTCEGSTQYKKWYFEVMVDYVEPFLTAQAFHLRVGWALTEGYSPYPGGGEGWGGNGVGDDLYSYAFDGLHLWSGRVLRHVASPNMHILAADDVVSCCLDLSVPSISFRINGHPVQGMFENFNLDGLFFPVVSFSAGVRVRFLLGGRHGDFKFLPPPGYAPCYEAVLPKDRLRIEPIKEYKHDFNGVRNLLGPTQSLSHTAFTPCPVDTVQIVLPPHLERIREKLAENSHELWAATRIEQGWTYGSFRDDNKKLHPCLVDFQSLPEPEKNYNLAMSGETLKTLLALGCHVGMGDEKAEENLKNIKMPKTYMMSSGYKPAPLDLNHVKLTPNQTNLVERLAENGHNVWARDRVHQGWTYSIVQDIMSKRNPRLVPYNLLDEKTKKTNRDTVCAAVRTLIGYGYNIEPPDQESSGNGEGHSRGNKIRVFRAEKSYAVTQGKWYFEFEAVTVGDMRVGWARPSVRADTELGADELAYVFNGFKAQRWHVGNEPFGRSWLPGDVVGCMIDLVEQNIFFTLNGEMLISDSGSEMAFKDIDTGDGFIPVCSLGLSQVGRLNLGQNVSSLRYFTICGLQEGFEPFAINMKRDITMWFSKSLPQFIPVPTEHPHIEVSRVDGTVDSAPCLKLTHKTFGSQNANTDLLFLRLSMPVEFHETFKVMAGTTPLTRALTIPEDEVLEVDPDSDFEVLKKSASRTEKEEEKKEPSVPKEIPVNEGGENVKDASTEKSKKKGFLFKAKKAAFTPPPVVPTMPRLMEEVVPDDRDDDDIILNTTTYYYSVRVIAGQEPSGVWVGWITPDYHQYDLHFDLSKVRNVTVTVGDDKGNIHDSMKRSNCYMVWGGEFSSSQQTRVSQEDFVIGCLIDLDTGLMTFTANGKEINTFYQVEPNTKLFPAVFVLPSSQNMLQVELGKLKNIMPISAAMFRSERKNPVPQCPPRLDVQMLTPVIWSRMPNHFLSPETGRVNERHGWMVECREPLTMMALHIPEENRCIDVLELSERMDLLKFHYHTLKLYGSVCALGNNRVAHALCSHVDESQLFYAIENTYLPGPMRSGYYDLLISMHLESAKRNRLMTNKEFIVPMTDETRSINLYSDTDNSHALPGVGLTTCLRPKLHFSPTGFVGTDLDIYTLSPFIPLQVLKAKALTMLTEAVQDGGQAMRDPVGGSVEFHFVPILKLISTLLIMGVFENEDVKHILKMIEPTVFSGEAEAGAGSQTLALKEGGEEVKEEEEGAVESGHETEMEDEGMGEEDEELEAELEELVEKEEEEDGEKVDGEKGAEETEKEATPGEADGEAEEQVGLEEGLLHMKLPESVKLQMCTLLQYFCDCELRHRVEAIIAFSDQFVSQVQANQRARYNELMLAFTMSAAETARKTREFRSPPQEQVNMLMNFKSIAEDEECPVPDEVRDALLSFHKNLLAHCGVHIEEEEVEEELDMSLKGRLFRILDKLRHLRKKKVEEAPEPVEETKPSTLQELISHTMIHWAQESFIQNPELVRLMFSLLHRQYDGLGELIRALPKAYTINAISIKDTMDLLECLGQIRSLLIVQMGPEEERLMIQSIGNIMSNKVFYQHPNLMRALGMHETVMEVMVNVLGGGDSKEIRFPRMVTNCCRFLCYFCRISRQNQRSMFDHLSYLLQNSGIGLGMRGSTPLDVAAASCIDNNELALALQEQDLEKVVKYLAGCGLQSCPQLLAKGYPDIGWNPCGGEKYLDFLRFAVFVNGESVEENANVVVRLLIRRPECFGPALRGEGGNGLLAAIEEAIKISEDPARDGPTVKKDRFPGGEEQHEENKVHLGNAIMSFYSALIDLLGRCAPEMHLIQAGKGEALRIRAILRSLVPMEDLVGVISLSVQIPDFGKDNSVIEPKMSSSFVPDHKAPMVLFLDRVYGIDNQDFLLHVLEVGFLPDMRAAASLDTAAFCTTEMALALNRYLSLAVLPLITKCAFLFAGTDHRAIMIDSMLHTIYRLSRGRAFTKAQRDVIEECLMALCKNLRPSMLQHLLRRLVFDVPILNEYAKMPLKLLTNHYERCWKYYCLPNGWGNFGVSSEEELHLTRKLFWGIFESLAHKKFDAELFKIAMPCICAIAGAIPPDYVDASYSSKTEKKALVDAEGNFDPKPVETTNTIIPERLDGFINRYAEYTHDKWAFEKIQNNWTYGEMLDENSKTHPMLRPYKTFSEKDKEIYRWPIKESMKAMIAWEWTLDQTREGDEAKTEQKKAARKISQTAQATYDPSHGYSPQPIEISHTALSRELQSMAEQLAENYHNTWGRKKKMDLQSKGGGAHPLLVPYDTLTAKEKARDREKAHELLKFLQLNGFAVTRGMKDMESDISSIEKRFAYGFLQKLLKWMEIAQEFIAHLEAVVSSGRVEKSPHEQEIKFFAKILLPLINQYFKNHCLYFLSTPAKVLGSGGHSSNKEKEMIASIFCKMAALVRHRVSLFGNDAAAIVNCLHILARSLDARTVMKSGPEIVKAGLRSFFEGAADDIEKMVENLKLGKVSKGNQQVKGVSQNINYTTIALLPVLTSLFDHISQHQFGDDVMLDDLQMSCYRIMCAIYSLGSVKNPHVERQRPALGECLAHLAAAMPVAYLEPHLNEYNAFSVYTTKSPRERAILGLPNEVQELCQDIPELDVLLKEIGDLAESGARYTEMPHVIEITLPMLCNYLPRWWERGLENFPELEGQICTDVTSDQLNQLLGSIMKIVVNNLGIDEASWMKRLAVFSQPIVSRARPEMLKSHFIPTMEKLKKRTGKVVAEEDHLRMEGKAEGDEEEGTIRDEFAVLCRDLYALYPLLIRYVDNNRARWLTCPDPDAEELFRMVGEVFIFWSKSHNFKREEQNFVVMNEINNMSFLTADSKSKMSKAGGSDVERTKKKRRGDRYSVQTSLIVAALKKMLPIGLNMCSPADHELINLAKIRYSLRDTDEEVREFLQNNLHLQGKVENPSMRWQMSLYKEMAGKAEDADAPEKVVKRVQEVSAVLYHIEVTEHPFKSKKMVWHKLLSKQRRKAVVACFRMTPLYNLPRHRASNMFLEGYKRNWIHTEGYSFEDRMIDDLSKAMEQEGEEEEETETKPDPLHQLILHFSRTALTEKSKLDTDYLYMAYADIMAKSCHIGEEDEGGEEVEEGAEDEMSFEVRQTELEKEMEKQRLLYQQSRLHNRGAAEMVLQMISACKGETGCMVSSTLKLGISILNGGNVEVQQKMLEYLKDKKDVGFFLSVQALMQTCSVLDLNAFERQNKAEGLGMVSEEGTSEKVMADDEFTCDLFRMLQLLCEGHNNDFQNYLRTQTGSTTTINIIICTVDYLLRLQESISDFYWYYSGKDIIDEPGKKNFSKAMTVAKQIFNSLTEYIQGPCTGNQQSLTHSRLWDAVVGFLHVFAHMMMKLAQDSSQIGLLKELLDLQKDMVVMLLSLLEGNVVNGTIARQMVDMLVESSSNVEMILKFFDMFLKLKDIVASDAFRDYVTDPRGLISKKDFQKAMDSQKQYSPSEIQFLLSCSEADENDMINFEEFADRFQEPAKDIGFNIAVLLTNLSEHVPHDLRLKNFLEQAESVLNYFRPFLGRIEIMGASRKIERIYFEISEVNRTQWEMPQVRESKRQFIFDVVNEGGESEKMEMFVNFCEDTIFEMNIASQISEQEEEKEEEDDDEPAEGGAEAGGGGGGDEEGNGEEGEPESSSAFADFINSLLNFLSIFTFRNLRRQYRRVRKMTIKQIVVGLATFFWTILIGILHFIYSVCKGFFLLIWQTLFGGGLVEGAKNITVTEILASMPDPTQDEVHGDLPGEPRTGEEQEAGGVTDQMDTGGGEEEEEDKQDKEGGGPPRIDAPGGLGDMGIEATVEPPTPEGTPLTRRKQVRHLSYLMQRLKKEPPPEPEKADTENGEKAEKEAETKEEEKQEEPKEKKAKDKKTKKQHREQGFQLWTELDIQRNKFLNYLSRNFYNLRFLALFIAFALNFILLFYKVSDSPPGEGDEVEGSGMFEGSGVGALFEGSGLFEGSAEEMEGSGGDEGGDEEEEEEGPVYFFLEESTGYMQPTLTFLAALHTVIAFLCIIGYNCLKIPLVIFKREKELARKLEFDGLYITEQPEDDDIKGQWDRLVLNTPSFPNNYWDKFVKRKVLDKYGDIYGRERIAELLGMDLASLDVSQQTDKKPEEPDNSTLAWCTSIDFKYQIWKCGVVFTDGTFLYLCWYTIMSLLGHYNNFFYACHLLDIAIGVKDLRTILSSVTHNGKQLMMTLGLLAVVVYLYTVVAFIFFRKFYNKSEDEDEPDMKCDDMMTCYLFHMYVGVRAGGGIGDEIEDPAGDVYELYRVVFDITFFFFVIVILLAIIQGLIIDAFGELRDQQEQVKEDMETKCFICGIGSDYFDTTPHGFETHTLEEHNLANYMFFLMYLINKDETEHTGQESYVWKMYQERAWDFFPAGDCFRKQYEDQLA
Format: binding, rainbow trout (Oncorhynchus mykiss)
condition summary: linear regression of log-probit plot; Mean ± SEM; (−) inactive
Decision: Log-Probit Slope beneath 3 gives 1 (yes); Log-Probit Slope meeting or exceeding 3 gives 0 (no).

Solved cases below.
1) Clc1ccc(Cl)c(-c2c(Cl)ccc(Cl)c2Cl)c1Cl :: 0 (no)
2) Clc1ccc(-c2cc(Cl)c(Cl)cc2Cl)c(Cl)c1 :: 1 (yes)
3) Clc1cc(Cl)c(-c2c(Cl)ccc(Cl)c2Cl)cc1Cl :: 0 (no)

Now look at this entry.
Does Clc1ccc(Cl)c(-c2cc(Cl)ccc2Cl)c1 have Log-Probit Slope strictly under 3?
1 (yes)
